Target: T1, human iRhom2 (inactive rhomboid protein 2, isoform 1), endogenously expressed on human cells (human, UniProt Q6PJF5 1-856)
T1 sequence: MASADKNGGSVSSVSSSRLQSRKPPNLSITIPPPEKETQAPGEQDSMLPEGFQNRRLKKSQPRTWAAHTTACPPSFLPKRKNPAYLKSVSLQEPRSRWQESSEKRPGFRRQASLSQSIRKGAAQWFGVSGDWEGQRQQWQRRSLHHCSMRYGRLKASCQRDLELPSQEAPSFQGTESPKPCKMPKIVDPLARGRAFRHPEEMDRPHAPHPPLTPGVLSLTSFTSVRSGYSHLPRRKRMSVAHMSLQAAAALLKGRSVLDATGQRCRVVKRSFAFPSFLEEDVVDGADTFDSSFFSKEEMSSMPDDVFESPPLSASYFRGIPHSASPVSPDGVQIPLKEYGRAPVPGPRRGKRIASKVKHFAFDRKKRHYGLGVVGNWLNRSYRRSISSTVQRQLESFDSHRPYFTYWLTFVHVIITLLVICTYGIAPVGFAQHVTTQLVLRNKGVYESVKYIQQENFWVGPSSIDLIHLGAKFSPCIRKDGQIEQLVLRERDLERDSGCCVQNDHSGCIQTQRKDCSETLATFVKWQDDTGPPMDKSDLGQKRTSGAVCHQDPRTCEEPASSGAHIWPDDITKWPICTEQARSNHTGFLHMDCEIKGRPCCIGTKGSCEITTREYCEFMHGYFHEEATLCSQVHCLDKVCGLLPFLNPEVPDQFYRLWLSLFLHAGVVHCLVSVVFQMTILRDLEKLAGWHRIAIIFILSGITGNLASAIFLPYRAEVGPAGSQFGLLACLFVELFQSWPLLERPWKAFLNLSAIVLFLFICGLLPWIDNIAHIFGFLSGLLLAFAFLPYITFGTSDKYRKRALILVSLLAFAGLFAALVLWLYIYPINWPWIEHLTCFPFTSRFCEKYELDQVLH
Experiment: cell-based or functional assay
property.measured: inhibition of PMA-induced release of HB-EGF from THP-1 cells, 3 µg/ml (% inhibition)
Reply numerically in % inhibition, unit not repeated.

Please look up its inhibition of PMA-induced release of HB-EGF from THP-1 cells, 3 µg/ml: chimeric version of antibody 42 (antibody, V domains shown) VH: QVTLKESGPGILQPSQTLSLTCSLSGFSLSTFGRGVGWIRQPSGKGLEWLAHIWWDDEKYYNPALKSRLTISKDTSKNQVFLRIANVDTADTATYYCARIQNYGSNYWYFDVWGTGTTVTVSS VL: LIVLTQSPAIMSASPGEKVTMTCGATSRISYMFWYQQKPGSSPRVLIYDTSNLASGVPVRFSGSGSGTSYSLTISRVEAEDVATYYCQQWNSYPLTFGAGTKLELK
80.8

The origin of these recorded values is patent US20240174744A1.
